test: viability gain of MRP-1-high H69AR cells under doxorubicin, pilot screen, MRP-1 activator project, CellTiter-Glo, duplicate (AID 807); conditions: H69AR viability with doxorubicin, CellTiter-Glo luminescence; at 10 µM; hits give high values;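 further: compound pretreatment 18-22 h then 72 h combined with doxorubicin; 0% = doxorubicin alone and 100% = vehicle without doxorubicin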
This section presents compounds with their documented viability increase values.
Express it in %; write the number only.

> print(dat)
                                   compound  measured
1  CCOC(=O)C1Cn2c(nc3c(c2=O)C(C)(C)Cc2ccccc2-3)S1 (configuration not stated)      0.36
2           CSc1nc(C)nc2c1c(=O)n(C)c(=O)n2C     -1.42
3         N#Cc1ccc(Sc2nc3ccccc3[nH]2)cc1C#N     -5.02

Req: Which viability increase is listed for COC(=O)c1ccc(C2c3c(oc4cc(C)c(C)cc4c3=O)C(=O)N2CCCN(C)C)cc1 (configuration not stated) ?
Resp: -2.2

Req: Fill blank: measured viability increase of the compound Cc1ccc(CC(CC(=O)O)C(=O)NC2CCCCC2)cc1 (configuration not stated) is ____.
Resp: -0.76

Req: // lookup viability increase for CCc1cccc(OCCCCNCCOC)c1
Resp: -0.86

Req: # get_value(readout='viability increase', item= CC(C)N(Cc1ccccc1)C(=O)c1cnc2n(c1=O)CCS2 )
Resp: -2.84
